- Tested on: KU-812
- measurement-setup: 72 h
List of IC50 (cell viability) values.

[
  {
    "compound": "CN(C)CCNC(=O)c1cccn2c(=O)c3cc4ccccc4cc3nc12",
    "experimental-system": "KU-812",
    "IC50 (cell viability)": "0.479 µM"
  },
  {
    "compound": "OC[C@H]1N[C@@H](c2c[nH]c3c(O)ncnc23)[C@H](O)[C@@H]1O",
    "experimental-system": "KU-812",
    "IC50 (cell viability)": "> 10 µM"
  },
  {
    "compound": "CC(=O)N[C@@H](CS)C(=O)O",
    "experimental-system": "KU-812",
    "IC50 (cell viability)": "> 10 µM"
  },
  {
    "compound": "O=C(Oc1cccc(F)c1OC(=O)c1cccc(O)c1)c1cccc(O)c1",
    "experimental-system": "KU-812",
    "IC50 (cell viability)": "3.88 µM"
  },
  {
    "compound": "NCc1ccc(-c2cccnc2)s1",
    "experimental-system": "KU-812",
    "IC50 (cell viability)": "> 10 µM"
  }
]

Prompt: Name the recorded IC50 (cell viability) of the compound listed here: `Cl.NC1=CCCN1Cc1nc(O)nc(O)c1Cl`
Response: > 10 µM

Prompt: Name the recorded IC50 (cell viability) of the compound listed here: `Cl.OC[C@H]1NC[C@H](O)[C@@H](O)[C@H]1O`
Response: > 10 µM

Prompt: Name the recorded IC50 (cell viability) of the compound listed here: `Oc1ncc(F)c(O)n1`
Response: > 10 µM

Prompt: Name the recorded IC50 (cell viability) of the compound listed here: `O=C(CCl)N(CCCNC(=O)C(F)(F)F)c1ccc([N+](=O)[O-])cc1`
Response: 2.23 µM

----------
List of cell viability values.
- System: HL-60
- assay-procedure: cell viability (% survival relative to DMSO control); higher = less cytotoxic
- measurement-setup: 0.001 µM; 72 h; co-treatment: GSK2194069 100 nM
Unit % implied. Number only.

A selection of reference data follows.
[
  {
    "compound": "O=C(Oc1cccc(F)c1OC(=O)c1cccc(O)c1)c1cccc(O)c1",
    "result-units": "%",
    "cell viability": 102
  },
  {
    "compound": "OCCN(CCO)c1nc(N2CCCCC2)c2nc(N(CCO)CCO)nc(N3CCCCC3)c2n1",
    "result-units": "%",
    "cell viability": 94.2
  },
  {
    "compound": "O=C(CCl)N(CCCNC(=O)C(F)(F)F)c1ccc([N+](=O)[O-])cc1",
    "result-units": "%",
    "cell viability": 100
  },
  {
    "compound": "Cc1nc(-c2ccc(OCC(C)C)c(C#N)c2)sc1C(=O)O",
    "result-units": "%",
    "cell viability": 99.9
  },
  {
    "compound": "N=C(N)c1ccc(N=NNc2ccc(C(=N)N)cc2)cc1",
    "result-units": "%",
    "cell viability": 99.7
  },
  {
    "compound": "Clc1cc(Cl)c(OCC#CI)cc1Cl",
    "result-units": "%",
    "cell viability": 95.5
  },
  {
    "compound": "C=C1C(=O)O[C@H](CCCCCCCC)[C@H]1C(=O)O",
    "result-units": "%",
    "cell viability": 96
  },
  {
    "compound": "N[C@@H](CCC(=O)N[C@@H](CS)C(=O)NCC(=O)O)C(=O)O",
    "result-units": "%",
    "cell viability": 96.2
  }
]

# next compound below
Prompt: Give cell viability only, for COc1cc(C2Oc3cc(C4Oc5cc(O)cc(O)c5C(=O)C4O)ccc3OC2CO)ccc1O (centres undefined) , using HL-60 data.
Response: 107

----------
- System: myeloid leukemia patient primary cells Pat.6
- assay-procedure: cell viability (% survival relative to DMSO control); higher = less cytotoxic
- measurement-setup: 10000 nM; 72 h
value-type: cell viability (%)
Unit % implied. Number only.

[
  {
    "molecular-string": "Fc1ccc(CNc2ncnc3ccc(F)cc23)cc1",
    "cell viability [%]": 42.2
  },
  {
    "molecular-string": "CN(C)CCNC(=O)c1cccn2c(=O)c3cc4ccccc4cc3nc12",
    "cell viability [%]": 10.2
  },
  {
    "molecular-string": "CCn1c(=O)/c(=C2\\Sc3ccccc3N2C)s/c1=C\\c1cccc[n+]1CC.[Cl-]",
    "cell viability [%]": 76.2
  }
]

Prompt: Name the recorded cell viability of the compound listed here: `O=C(Cc1cccc(OC(F)(F)F)c1)Nc1ccc(CCCCc2nnc(NC(=O)Cc3ccccn3)s2)nn1`
Response: 90.9

----------
- Test system: SHI-1
- assay-procedure: cell viability (% survival relative to DMSO control, bortezomib = 0%); higher = less cytotoxic
- measurement-setup: 100 nM; 72 h
value-type: cell viability (%)
Unit % implied. Number only.

[
  {
    "compound": "COc1ccc2c(c1)c(CC(=O)O)c(C)n2C(=O)c1ccc(Cl)cc1",
    "result-units": "%",
    "measured-number": 99
  },
  {
    "compound": "Cn1c2cc(S(C)=O)sc2c2cnn(Cc3cccc(N)c3)c(=O)c21 (configuration not stated)",
    "result-units": "%",
    "measured-number": 105
  }
]

Prompt: Name the recorded cell viability of the compound listed here: `Nc1nc(O)c2c(CCc3ccc(C(=O)N[C@@H](CCC(=O)O)C(=O)O)cc3)c[nH]c2n1`
Response: 106

Prompt: Name the recorded cell viability of the compound listed here: `CC(C)(CS(=O)(=O)[O-])NC(=O)CC[N+](C)(C)CCO`
Response: 96.8

Prompt: Name the recorded cell viability of the compound listed here: `CC(C)(F)C[C@H](N[C@@H](c1ccc(-c2ccc(S(C)(=O)=O)cc2)cc1)C(F)(F)F)C(=O)NC1(C#N)CC1`
Response: 99.9

Prompt: Name the recorded cell viability of the compound listed here: `CN(C)C(=N)NC(=N)N`
Response: 104

Prompt: Name the recorded cell viability of the compound listed here: `CC(C)(CCCCCCCCCCC(C)(C)CC(=O)O)CC(=O)O`
Response: 102

Prompt: Name the recorded cell viability of the compound listed here: `OCCN(CCO)c1nc(N2CCCCC2)c2nc(N(CCO)CCO)nc(N3CCCCC3)c2n1`
Response: 110

Prompt: Name the recorded cell viability of the compound listed here: NC(CCC(=O)NC(CSCc1ccc(Br)cc1)C(=O)NCC(=O)OC1CCCC1)C(=O)OC1CCCC1 (configuration not stated)
Response: 98.5

Prompt: Name the recorded cell viability of the compound listed here: `C=C1C(=O)O[C@H](CCCCCCCC)[C@H]1C(=O)O`
Response: 108

Prompt: Name the recorded cell viability of the compound listed here: `O=C(/C=C/c1cccnc1)NCCCCC1CCN(C(=O)c2ccccc2)CC1`
Response: 83

Prompt: Name the recorded cell viability of the compound listed here: CC(=O)N1CCN(c2ccc(OC[C@@H]3CO[C@@](Cn4ccnc4)(c4ccc(Cl)cc4Cl)O3)cc2)CC1 (racemic)
Response: 96.3

Prompt: Name the recorded cell viability of the compound listed here: `O=C(CCl)N(CCCNC(=O)C(F)(F)F)c1ccc([N+](=O)[O-])cc1`
Response: 85.1

Prompt: Name the recorded cell viability of the compound listed here: `O=C(Oc1cccc(F)c1OC(=O)c1cccc(O)c1)c1cccc(O)c1`
Response: 102

Prompt: Name the recorded cell viability of the compound listed here: COc1cc(C2Oc3cc(C4Oc5cc(O)cc(O)c5C(=O)C4O)ccc3OC2CO)ccc1O (configuration not stated)
Response: 89.3

Prompt: Name the recorded cell viability of the compound listed here: `OCCN1C[C@H](O)[C@@H](O)[C@H](O)[C@H]1CO`
Response: 105

Prompt: Name the recorded cell viability of the compound listed here: `N=C(N)c1ccc(N=NNc2ccc(C(=N)N)cc2)cc1`
Response: 116

----------
List of cell viability values.
- Test system: HL-60
- assay-procedure: cell viability (% survival relative to DMSO control); higher = less cytotoxic
- measurement-setup: 0.1 µM; 72 h; co-treatment: AZD3965 100 nM
Unit % implied. Number only.

[
  {
    "compound": "Cl.OC[C@H]1NC[C@H](O)[C@@H](O)[C@H]1O",
    "result-units": "%",
    "measured-number": 102
  }
]

Prompt: Give cell viability only, for NC(CCC(=O)NC(CSCc1ccc(Br)cc1)C(=O)NCC(=O)OC1CCCC1)C(=O)OC1CCCC1 (configuration not stated) , using HL-60 data.
Response: 102

Prompt: Give cell viability only, for `O=C(Cc1cccc(OC(F)(F)F)c1)Nc1ccc(CCCCc2nnc(NC(=O)Cc3ccccn3)s2)nn1` , using HL-60 data.
Response: 103

Prompt: Give cell viability only, for `O[C@H]1[C@H](O)[C@@H](O)CN2CC[C@H](O)[C@H]12` , using HL-60 data.
Response: 104

Prompt: Give cell viability only, for `O=C(c1c2ccccc2cc2ccccc12)N1CCC(N2CCC[C@@H](C(=O)N3CCOCC3)C2)CC1` , using HL-60 data.
Response: 102

Prompt: Give cell viability only, for `Nc1nc(O)c2c(CCc3ccc(C(=O)N[C@@H](CCC(=O)O)C(=O)O)cc3)c[nH]c2n1` , using HL-60 data.
Response: 107

Prompt: Give cell viability only, for NS(=O)(=O)c1ccc(NC(=O)Cc2ccccc2)cc1 [4-(2-Phenylacetamido)Benzenesulfonamide] , using HL-60 data.
Response: 99.3
